FYI, the data here is from patent US6689778B2.

The listing below reports Ki for compounds tested on UniProt:P06239.

compound | Ki
CCN1CCN(CCCCOc2cccc(Nc3nccc(-c4c(C5CCCCC5)noc4C)n3)c2)CC1 | < 100 nM
Cc1onc(C2CCCCC2)c1-c1ccnc(Nc2cccc(OCCCN3CCOCC3)c2)n1 | < 100 nM
COc1cc(Nc2ncc(C(=O)O)c(-c3c(C4CCCCC4)noc3C)n2)cc(OC)c1 | > 1000 nM
CCCOCc1cnc(Nc2cc(OC)cc(OC)c2)nc1-c1c(C2CCCCC2)noc1C | < 100 nM
Cc1onc(C2CCCCC2)c1-c1ccnc(Nc2cccc(OCCOC3CCCCO3)c2)n1 (centres unmarked) | < 100 nM

**Q:** # assay system UniProt:P06239: give Ki of Cc1onc(C2CCCCC2)c1-c1ccnc(Nc2cccc(OC3CCCNC3)c2)n1 (centres unmarked)
**A:** < 100 nM

**Q:** # assay system UniProt:P06239: give Ki of Cc1onc(C2CCCCC2)c1-c1ccnc(Nc2cccc(OC3CCCN(C(=O)OC(C)(C)C)C3)c2)n1 (centres unmarked)
**A:** > 1000 nM

**Q:** # assay system UniProt:P06239: give Ki of `Cc1onc(C2CCCCC2)c1-c1ccnc(Nc2cccc(NC(=O)CCN3CCCCC3)c2)n1`
**A:** < 100 nM

----------
pKi: −log10 of the molar value.
The listing below reports pKi for compounds tested on human Lck kinase (UniProt P06239).

compound | result
Cc1onc(C2CCCCC2)c1-c1ccnc(Nc2cccc(OCCCCN3CCOCC3)c2)n1 | > 7.00
COc1cc(Nc2ncc(C#N)c(-c3c(C4CCCCC4)noc3C)n2)cc(OC)c1 | 6.00 to 7.00
COc1cc(Nc2ncc(CO)c(-c3c(C4CCCCC4)noc3C)n2)cc(OC)c1 | < 6.00
Cc1onc(C2CCCCC2)c1-c1ccnc(Nc2cccc(OCC3CCCNC3)c2)n1 (stereo not drawn) | > 7.00
Cc1onc(C2CCCCC2)c1-c1ccnc(Nc2cccc(OCCCCN3CCCC3)c2)n1 | > 7.00
Cc1onc(C2CCCCC2)c1-c1ccnc(Nc2cccc(OCCCN3CCCC(O)C3)c2)n1 (stereo not drawn) | > 7.00
Cc1onc(C2CCCCC2)c1-c1ccnc(Nc2cccc(OCCN3CCC[C@H]3CO)c2)n1 | > 7.00
Cc1onc(C2CCCCC2)c1-c1ccnc(Nc2cccc(OCCCN3CCN(CCO)CC3)c2)n1 | > 7.00

Now for the compound whose pKi we want.
**Q:** # assay system human Lck kinase (UniProt P06239): give pKi of `Cc1onc(C2CCCCC2)c1-c1ccnc(Nc2cccc(OCCN3CCOCC3)c2)n1`
**A:** > 7.00
